# System: SK-OV-3
# Test Protocol: NCI tumour cell line growth inhibition, 48 h
The source made the active and inactive calls. Cut-off read from the data, not from the text of the source: active = GI50 up to about 1.1 µM and inactive = higher.
Readout Label: GI50

> print(dat)
                                   compound  readout.label               result
1  CCCCCCc1cc2cc(C(=O)Nc3ccccc3)c(=N)oc2cc1O           GI50   3.34 µM (inactive)
2          CC(=O)N1CC(C)(C)c2c1cc(C)c(O)c2C           GI50  > 100 µM (inactive)
3  NC(=O)c1ncn2c(=O)n(CCCl)nnc12 [MITOZOLOMIDE]           GI50   52.6 µM (inactive)
4  CC1CCN(C(C)C)P(=S)(Cc2ccccc2)O1 (stereo unspecified)           GI50  > 100 µM (inactive)
5  COc1cc(C(c2ccc3c(c2)OCO3)N2C(=O)CCC2C(=O)O)cc(OC)c1OC (stereo unspecified)           GI50  > 100 µM (inactive)
6  Oc1ccccc1-c1nnc(S)n1/N=C/c1ccc(-c2ccc(Br)cc2)o1           GI50     31 µM (inactive)

====

# System: SK-OV-3
# Test Protocol: NCI tumour cell line growth inhibition, 48 h
The source made the active and inactive calls. Cut-off read from the data, not from the text of the source: active = GI50 up to about 1.1 µM and inactive = higher.
Catalogue of compounds with associated GI50

Compound	GI50
COc1ccc(NC(=O)CC(=O)N2N=C(N(CCC#N)c3cccc(C)c3)CC2c2ccccc2)cc1 (stereo not given)	> 100 µM (inactive)
Cc1ccc(C(=O)Nc2ccc(CP(=O)(O)O)cc2CP(=O)(O)O)cc1NC(=O)c1cccc(NC(=O)Nc2cccc(C(=O)Nc3cc(C(=O)Nc4ccc(CP(=O)(O)O)cc4CP(=O)(O)O)ccc3C)c2)c1	> 100 µM (inactive)
Cc1nc(Nc2ccccc2)sc1C(=O)CC(=O)C(=O)Nc1c(C(C)C)cccc1C(C)C	> 100 µM (inactive)
O=C1/C(=N\n2c(S)nnc2-c2ccncc2)c2cc(Cl)ccc2N1CN1CCCCC1	39.5 µM (inactive)
Clc1ccccc1C(Nc1cnccn1)Nc1cnccn1	> 100 µM (inactive)
Brc1c2c(c(Br)c3nsnc13)N=S=N2	46.2 µM (inactive)
CSc1nc2ccccc2c(=O)n1/N=C1\C(=O)N(CN2CCCCC2)c2ccc(Cl)cc21	27.4 µM (inactive)
COc1ccc(CC2c3cc4c(cc3CCN2C)OCO4)c(C=O)c1OC (stereo not given)	> 100 µM (inactive)
CC(Cc1ccccc1)NC1=NCCO1 (stereo not given)	> 100 µM (inactive)
CCOc1cc2c(cnc3c4cc(OC)c(OC)cc4ccc23)cc1OC	> 100 µM (inactive)

====

# Tested on: NCI-H522
# Test Protocol: NCI tumour cell line growth inhibition, 48 h
Calls of active or inactive are those of the source. No stated cut-off is given here; in the data, active = GI50 up to about 1.1 µM and inactive = higher.
Readout Label: GI50

> print(dat)
                                   compound  readout.label               result
1                     CCOC(=O)/C=C/c1ccccn1           GI50  > 100 µM (inactive)
2  CCCC(=O)CC(C)C(=O)C(=O)NC12CC3CC(CC(C3)C1)C2 (stereo not given)           GI50  > 100 µM (inactive)
3  COc1ccc(CC2c3cc4c(cc3CCN2C)OCO4)c(C=O)c1OC (stereo not given)           GI50  > 100 µM (inactive)
4  CC1CCC2(C)C(CC=C(C=O)C2(O)C=O)C12CO2 (stereo not given)           GI50   2.31 µM (inactive)
5  O=C(C1=C(C(=O)c2ccccc2)SC2(S1)C(C(=O)c1ccccc1)=C(C(=O)c1ccccc1)Sc1c2ssc1=O)c1ccccc1           GI50   26.7 µM (inactive)

====

# Tested on: Malme-3M
# Test Protocol: NCI tumour cell line growth inhibition, 48 h
The source made the active and inactive calls. Cut-off read from the data, not from the text of the source: active = GI50 up to about 1.1 µM and inactive = higher.
Readout Label: GI50

> print(dat)
                                    compound  readout.label               result
 1  O=c1c2ccccc2nc2n1C(c1ccc([N+](=O)[O-])cc1)C2(c1ccccc1)c1ccccc1 (stereo not given)           GI50  > 100 µM (inactive)
 2      O=C1NC(N2CCOCC2)=N/C1=C\c1ccc(Cl)cc1           GI50  > 100 µM (inactive)
 3  Clc1ccc(-c2nn3c(C45CC6CC(CC(C6)C4)C5)nnc3s2)cc1           GI50  > 100 µM (inactive)
 4  Nc1nc(NC2C=C(CO)C(O)C2O)c([N+](=O)[O-])c(=O)[nH]1 (stereo not given)           GI50  > 100 µM (inactive)
 5  CCOC(=O)n1cncc1CC(NC(=O)Cc1c(C(=O)C=C(C)C)[nH]c2ccccc12)C(=O)OC (stereo not given)           GI50   17.2 µM (inactive)
 6  CC12c3c4ccc(C=O)c3Oc3ccc(C=O)c(c31)Oc1ccc(C=O)c(c12)O4           GI50   > 25 µM (inactive)
 7  COc1ccc(C(=O)/C=C/c2ccc(OCC(=N)N)cc2)cc1           GI50   17.9 µM (inactive)
 8  CCn1c(-c2ccc(OC(C)=O)cc2)c(C)c2cc(OC(C)=O)ccc21           GI50   21.7 µM (inactive)
 9      O=[N+]([O-])CCc1cccc([N+](=O)[O-])c1           GI50  > 100 µM (inactive)
10  C[Si](C)(c1ccc(C(=O)O)cc1)c1ccc(C(=O)O)cc1           GI50  > 100 µM (inactive)

====

# Test system: OVCAR-8
# Test Protocol: NCI tumour cell line growth inhibition, 48 h
The source made the active and inactive calls. No stated cut-off is given here; in the data, active = GI50 up to about 1.1 µM and inactive = higher.
Catalogue of compounds with associated GI50
Readout Label: GI50

> print(dat)
                                    compound               result
 1  C=CCC(CNC(=O)OCc1ccccc1)OC(=O)OCc1ccccc1 (stereo not given)     69 µM (inactive)
 2  CCOP(=O)(OCC)C(c1ccc(F)cc1)N(C(=O)NC(F)(F)F)c1ccc(OC)cc1 (stereo not given)  > 100 µM (inactive)
 3  COc1ccc(/N=C2\C(=N/c3ccc(OC)cc3)N(S(=O)(=O)c3ccccc3)C(=S)N2c2ccc(OC)cc2)cc1  > 100 µM (inactive)
 4           COc1c(NC(C)=O)c2ccccc2c2ccccc12  > 100 µM (inactive)
 5  COc1cc(C2c3cc4c(cc3OC(NNS(=O)(=O)c3ccc(C)cc3)C2C)OCO4)cc(OC)c1OC (stereo not given)   8.91 µM (inactive)
 6  CC(=O)OCC1OC(n2c(=O)n(-c3ccccc3)c(=O)c3ccccc32)C(OC(C)=O)C(OC(C)=O)C1OC(C)=O (stereo not given)  > 100 µM (inactive)
 7   CCCCNC(=S)c1ccc(OC(=O)Nc2ccc(Cl)cc2)cc1   12.6 µM (inactive)
 8  Nc1cccc2cc(S(=O)(=O)Nc3ccc(C(=O)O)cc3)ccc12  > 100 µM (inactive)
 9  NC(=O)c1ncn2c(=O)n(CCCl)nnc12 [MITOZOLOMIDE]    101 µM (inactive)
10  CC1=C(C(=O)N(C)c2ccc(Cl)c(C(=O)OC(C)C)c2)SCCO1   70.6 µM (inactive)
11  O=C(NCCCN1CCN(CCCNC(=O)c2cnc3ccccc3n2)CC1)c1cnc2ccccc2n1  > 100 µM (inactive)
12  Cc1cc2[nH]c3c(C#N)c(-c4ccccc4)c(/C=N/c4ccc(F)cc4)c(=O)n3c2cc1C  > 100 µM (inactive)
13  CN(C)c1ccc(/C=C2\C[C@H]3[C@@H]4CCC5=CC(=O)CC[C@]5(C)[C@H]4CC[C@]3(C)C2=O)cc1   31.8 µM (inactive)
14  CSc1nc(Nc2cccc(C(F)(F)F)c2)c2c(N)nn(C)c2n1  > 100 µM (inactive)
15  COc1ccc2c(c1)c[n+](C)c1c3cc(OC)c(OC)cc3ccc21   1.73 µM (inactive)
16  CCCCCCc1cc2cc(-c3cn4c(n3)sc3ccccc34)c(=O)oc2cc1O   5.82 µM (inactive)
17           CSC(SC)=C1C(=O)N(c2ccccc2)N=C1C   33.8 µM (inactive)
18  NS(=O)(=O)c1ccc(/N=N/c2ccc(O)c(C(=O)O)c2)cc1 [SALAZOSULFAMIDE]  > 100 µM (inactive)
19    Cc1cc(C)c2c(O)cc(-c3cccc4ccccc34)nc2n1   1.14 µM (inactive)
20       CCOC(=S)SC/C(=N\OC(C)(C)OC)c1ccccc1   88.7 µM (inactive)

====

Catalogue of compounds with associated GI50
# Tested on: HOP-18
# Test Protocol: NCI tumour cell line growth inhibition, 48 h
The source made the active and inactive calls. Cut-off read from the data, not from the text of the source: active = GI50 up to about 1.1 µM and inactive = higher.
Readout Label: GI50

Compound	Result
O=C1[C@H]2ON(c3ccccc3)C(c3ccccc3F)[C@H]2C(=O)N1c1ccc(Cc2ccc(N3C(=O)[C@@H]4ON(c5ccccc5)C(c5ccccc5F)[C@@H]4C3=O)cc2)cc1 (some centres undefined)	> 100 µM (inactive)
Cc1nc(Nc2ccccc2)sc1C(=O)CC(=O)C(=O)Nc1c(C(C)C)cccc1C(C)C	> 100 µM (inactive)
COc1ccc(C2=C(Cl)c3cc(OC)c(OC)cc3C2Cl)cc1OC (centres undefined)	21.7 µM (inactive)
CCN(CC)c1c(C(=O)/C=C/c2ccc(Cl)cc2)c(-c2ccccc2)nn(C)c1=O	2.09 µM (inactive)
